// pKi lookup, one value per entry
target: α4β2 Receptor (alpha4beta2 nAChR) (Rattus norvegicus, UniProt P09483+P12390); construct: protein concentration of the rat brain membranes contained in the pellet; tissue Pel-Freeze Biologicals; host or cells: whole male Sprague-Dawley rat brain membranes; experiment: Displacement binding of 3H-cytisine to rat brain membranes (α4β2 nAChR)
Sequence (P09483 31-630): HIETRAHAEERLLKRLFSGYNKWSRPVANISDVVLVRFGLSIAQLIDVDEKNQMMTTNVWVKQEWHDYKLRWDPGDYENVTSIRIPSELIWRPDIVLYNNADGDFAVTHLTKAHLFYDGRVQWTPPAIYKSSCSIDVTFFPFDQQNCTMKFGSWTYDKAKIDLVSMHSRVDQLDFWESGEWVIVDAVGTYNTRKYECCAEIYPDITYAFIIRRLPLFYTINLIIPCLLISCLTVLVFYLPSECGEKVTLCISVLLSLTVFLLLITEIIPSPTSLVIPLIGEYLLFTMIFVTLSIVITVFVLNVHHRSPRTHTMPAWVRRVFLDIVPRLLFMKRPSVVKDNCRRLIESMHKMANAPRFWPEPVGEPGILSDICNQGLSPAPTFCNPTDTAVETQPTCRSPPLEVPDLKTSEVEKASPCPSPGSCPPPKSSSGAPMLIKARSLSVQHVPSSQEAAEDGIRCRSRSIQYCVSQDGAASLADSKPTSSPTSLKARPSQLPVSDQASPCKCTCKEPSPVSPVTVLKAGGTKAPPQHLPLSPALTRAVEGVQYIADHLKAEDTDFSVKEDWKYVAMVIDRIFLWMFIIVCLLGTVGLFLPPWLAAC
Sequence (P12390 25-500): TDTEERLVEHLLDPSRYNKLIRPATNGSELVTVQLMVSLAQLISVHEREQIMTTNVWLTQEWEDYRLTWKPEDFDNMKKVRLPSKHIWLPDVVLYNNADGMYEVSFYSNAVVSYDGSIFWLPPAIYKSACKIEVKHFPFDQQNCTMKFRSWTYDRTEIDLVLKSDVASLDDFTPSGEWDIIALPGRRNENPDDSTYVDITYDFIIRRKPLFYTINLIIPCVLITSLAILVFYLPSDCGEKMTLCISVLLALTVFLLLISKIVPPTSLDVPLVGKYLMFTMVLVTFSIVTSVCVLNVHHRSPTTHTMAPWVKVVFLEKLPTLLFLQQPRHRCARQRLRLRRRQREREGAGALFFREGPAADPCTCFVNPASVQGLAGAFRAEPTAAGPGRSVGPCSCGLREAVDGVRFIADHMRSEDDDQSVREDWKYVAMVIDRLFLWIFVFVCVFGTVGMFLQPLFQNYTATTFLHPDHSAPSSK
Just so you know, pKi here is -log10 of the concentration in molar units; reply with that number alone.

## Input Need pKi, item Oc1ccc(/C=C2/C(c3cccnc3)=N[C@H]3CC[C@@H]2C3)cc1 [Compound 14]
## Output 7.14

## Input Could you do the same for c1cncc(C2=NCCCC2)c1 [Compound 1, anabaseine, reference compound] , please?
## Output 7.12

Now turn to the next molecule.
## Input Need pKi, item Nc1ccc(/C=C2/C(c3cccnc3)=N[C@H]3CC[C@@H]2C3)cc1 [Compound 16]
## Output 7.47

====

molecular target: α7 Receptor (alpha7 nAChR) (Rattus norvegicus, UniProt Q05941); construct: protein concentration of the rat brain membranes contained in the pellet; tissue Pel-Freeze Biologicals; host or cells: whole male Sprague-Dawley rat brain membranes; experiment: Displacement binding of 125I-α-bungarotoxin to rat brain membranes (α7 nAChR); conditions: given once per enantiomer pair, on the line of the first enantiomer; rat α7 binding
Sequence (Q05941 23-502): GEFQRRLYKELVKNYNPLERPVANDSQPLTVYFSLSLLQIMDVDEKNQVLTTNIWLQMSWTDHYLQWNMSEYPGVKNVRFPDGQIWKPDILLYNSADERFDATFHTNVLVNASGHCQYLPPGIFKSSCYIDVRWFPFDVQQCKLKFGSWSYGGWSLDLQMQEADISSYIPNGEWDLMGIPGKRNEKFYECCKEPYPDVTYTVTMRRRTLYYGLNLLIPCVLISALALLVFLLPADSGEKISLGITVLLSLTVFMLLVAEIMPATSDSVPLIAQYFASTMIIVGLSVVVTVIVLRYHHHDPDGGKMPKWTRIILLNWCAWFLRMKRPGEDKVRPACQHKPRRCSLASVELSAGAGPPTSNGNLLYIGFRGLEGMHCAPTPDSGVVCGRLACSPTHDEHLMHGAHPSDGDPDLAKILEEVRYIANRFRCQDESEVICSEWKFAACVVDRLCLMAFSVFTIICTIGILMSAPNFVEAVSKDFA
Tick Y if Enantiomeric Selectivity is 10 or greater. Tick N if Enantiomeric Selectivity is less than 10.

Here's what some known entries look like.
## Input hey, is Enantiomeric Selectivity for this one >= 10? COc1ccc(C=C2C(c3cccnc3)=NC(C)CC2C)c(OC)c1 (centres unmarked)
## Output Y

## Input Could you do the same for COc1ccc(/C=C2\CC[C@H](C)N=C2c2cccnc2)c(OC)c1 , please?
## Output N

## Input Could you do the same for COc1ccc(C=C2CC(C)CN=C2c2cccnc2)c(OC)c1 (centres unmarked) , please?
## Output N

## Input Could you do the same for COc1ccc(/C=C2/C(c3cccnc3)=N[C@H]3CC[C@@H]2C3)c(OC)c1 , please?
## Output Y

API: the following record is the query input.
## Input hey, is Enantiomeric Selectivity for this one >= 10? COc1ccc(C=C2C(c3cccnc3)=NCC[C@H]2C)c(OC)c1 [Compound 4, 3-(DMXB)-4(R)-methyl-anabaseine]
## Output N

====

// Ki lookup, one value per entry
target: α4β2 Receptor (alpha4beta2 nAChR) (Rattus norvegicus, UniProt P09483+P12390); construct: protein concentration of the rat brain membranes contained in the pellet; tissue Pel-Freeze Biologicals; host or cells: whole male Sprague-Dawley rat brain membranes; experiment: Displacement binding of 3H-cytisine to rat brain membranes (α4β2 nAChR); conditions: rat brain membranes, 3H-cytisine 1 nM, 4° C. four hours; read-out: α4β2 Receptor Rat Ki
State just the number; it will be interpreted in nM.

The cases that follow already have their Ki on record.
## Input Need Ki, item COc1ccc(/C=C2/C(c3cccnc3)=N[C@H]3CC[C@@H]2C3)c(OC)c1
## Output 219

## Input Could you do the same for Oc1ccc(C=C2CCCN=C2c2cccnc2)cc1 [Compound 3, reference compound] , please?
## Output 450

## Input Could you do the same for C[C@H]1CC/C(=C\c2ccc(N)cc2)C(c2cccnc2)=N1 , please?
## Output 314

## Input Could you do the same for COc1ccc(C=C2CC[C@@H](C)N=C2c2cccnc2)c(OC)c1 [Compound 9, 3-(DMXB)-6(R)-methyl-anabaseine] , please?
## Output 344

More entries:
## Input Need Ki, item COc1ccc(/C=C2/C(c3cccnc3)=N[C@@H]3CC[C@H]2C3)c(OC)c1
## Output 347

## Input Could you do the same for COc1ccc(C=C2C(c3cccnc3)=NC(C)CC2C)c(OC)c1 (stereo not shown) , please?
## Output 49.8

====

target: α7 Receptor (alpha7 nAChR) (Rattus norvegicus); construct: protein concentration of the rat brain membranes contained in the pellet; tissue Pel-Freeze Biologicals; host or cells: whole male Sprague-Dawley rat brain membranes; assay: Displacement binding of 125I-α-bungarotoxin to rat brain membranes (α7 nAChR); settings: Ki for alpha4beta2 binding divided by Ki for alpha7 binding, rat brain
Tick 1 if α7/α4β2 Selectivity (Selectivity factor) is 1 or greater. Tick 0 if α7/α4β2 Selectivity (Selectivity factor) is less than 1.

## Input hey, is α7/α4β2 Selectivity (Selectivity factor) for this one >= 1? COc1ccc(/C=C2/C(c3cccnc3)=N[C@H]3CC[C@@H]2C3)c(OC)c1
## Output 1

## Input Could you do the same for Oc1ccc(/C=C2/C(c3cccnc3)=N[C@H]3CC[C@@H]2C3)cc1 , please?
## Output 1

## Input Could you do the same for c1cncc(C2=NCCCC2)c1 [Compound 1, anabaseine, reference compound] , please?
## Output 0

More entries:
## Input hey, is α7/α4β2 Selectivity (Selectivity factor) for this one >= 1? COc1ccc(C=C2C(c3cccnc3)=NCC[C@H]2C)c(OC)c1 [Compound 4, 3-(DMXB)-4(R)-methyl-anabaseine]
## Output 1

## Input Could you do the same for C[C@H]1CC/C(=C\c2ccc(N)cc2)C(c2cccnc2)=N1 , please?
## Output 1

## Input Could you do the same for COc1ccc(C=C2CC[C@@H](C)N=C2c2cccnc2)c(OC)c1 [Compound 9, 3-(DMXB)-6(R)-methyl-anabaseine] , please?
## Output 0

## Input Could you do the same for COc1ccc(/C=C2\CC[C@H](C)N=C2c2cccnc2)c(OC)c1 , please?
## Output 1

## Input Could you do the same for Oc1ccc(C=C2CCCN=C2c2cccnc2)cc1 [Compound 3, reference compound] , please?
## Output 1

## Input Could you do the same for COc1ccc(/C=C2/C(c3cccnc3)=N[C@@H]3CC[C@H]2C3)c(OC)c1 , please?
## Output 0

## Input Could you do the same for COc1ccc(C=C2C(c3cccnc3)=NC(C)CC2C)c(OC)c1 (centres unmarked) , please?
## Output 1

## Input Could you do the same for COc1ccc(/C=C2/C(c3cccnc3)=N[C@H](C)C[C@@H]2C)c(OC)c1 , please?
## Output 1

## Input Could you do the same for COc1ccc(/C=C2\CCCN=C2c2cccnc2)c(OC)c1 [Compound 2, 3-(2,4-dimethoxybenzylidene)-anabaseine, reference compound] , please?
## Output 1

## Input Could you do the same for Nc1ccc(/C=C2/C(c3cccnc3)=N[C@H]3CC[C@@H]2C3)cc1 , please?
## Output 1

## Input Could you do the same for COc1ccc(/C=C2/C(c3cccnc3)=NCC[C@@H]2C)c(OC)c1 , please?
## Output 1

====

molecular target: α7 Receptor (alpha7 nAChR) (Rattus norvegicus); construct: protein concentration of the rat brain membranes contained in the pellet; tissue Pel-Freeze Biologicals; host or cells: whole male Sprague-Dawley rat brain membranes; assay: Displacement binding of 125I-α-bungarotoxin to rat brain membranes (α7 nAChR)
measure name: Ki (nM)
State just the number; it will be interpreted in nM.

## Input Need Ki, item C[C@H]1CC/C(=C\c2ccc(N)cc2)C(c2cccnc2)=N1 [Compound 15]
## Output 73

## Input Could you do the same for COc1ccc(C=C2CC(C)CN=C2c2cccnc2)c(OC)c1 (stereo not drawn) [Compound 7] , please?
## Output 1500

## Input Could you do the same for COc1ccc(/C=C2/C(c3cccnc3)=N[C@H]3CC[C@@H]2C3)c(OC)c1 [Compound 12] , please?
## Output 16.4

More entries:
## Input Need Ki, item Oc1ccc(/C=C2/C(c3cccnc3)=N[C@H]3CC[C@@H]2C3)cc1 [Compound 14]
## Output 34.1

## Input Could you do the same for COc1ccc(/C=C2/C(c3cccnc3)=NCC[C@@H]2C)c(OC)c1 [Compound 5] , please?
## Output 125

## Input Could you do the same for COc1ccc(C=C2C(c3cccnc3)=NCC[C@H]2C)c(OC)c1 [Compound 4, 3-(DMXB)-4(R)-methyl-anabaseine] , please?
## Output 62

====

target: α7 Receptor (alpha7 nAChR) (Rattus norvegicus); construct: protein concentration of the rat brain membranes contained in the pellet; tissue Pel-Freeze Biologicals; host or cells: whole male Sprague-Dawley rat brain membranes; assay: Displacement binding of 125I-α-bungarotoxin to rat brain membranes (α7 nAChR)
// Ki lookup, one value per entry
State just the number; it will be interpreted in nM.

The cases that follow already have their Ki on record.
## Input Need Ki, item Nc1ccc(/C=C2/C(c3cccnc3)=N[C@H]3CC[C@@H]2C3)cc1
## Output 3.43

## Input Could you do the same for c1cncc(C2=NCCCC2)c1 [Compound 1, anabaseine, reference compound] , please?
## Output 290

## Input Could you do the same for COc1ccc(/C=C2\CC[C@H](C)N=C2c2cccnc2)c(OC)c1 , please?
## Output 208

## Input Could you do the same for COc1ccc(/C=C2/C(c3cccnc3)=N[C@@H]3CC[C@H]2C3)c(OC)c1 , please?
## Output 4400

Now turn to the next molecule.
## Input Need Ki, item COc1ccc(C=C2CC[C@@H](C)N=C2c2cccnc2)c(OC)c1 [Compound 9, 3-(DMXB)-6(R)-methyl-anabaseine]
## Output 401
